Target: Nav 1.7 (Homo sapiens (Human))
Sequence (Q15858 whole entry): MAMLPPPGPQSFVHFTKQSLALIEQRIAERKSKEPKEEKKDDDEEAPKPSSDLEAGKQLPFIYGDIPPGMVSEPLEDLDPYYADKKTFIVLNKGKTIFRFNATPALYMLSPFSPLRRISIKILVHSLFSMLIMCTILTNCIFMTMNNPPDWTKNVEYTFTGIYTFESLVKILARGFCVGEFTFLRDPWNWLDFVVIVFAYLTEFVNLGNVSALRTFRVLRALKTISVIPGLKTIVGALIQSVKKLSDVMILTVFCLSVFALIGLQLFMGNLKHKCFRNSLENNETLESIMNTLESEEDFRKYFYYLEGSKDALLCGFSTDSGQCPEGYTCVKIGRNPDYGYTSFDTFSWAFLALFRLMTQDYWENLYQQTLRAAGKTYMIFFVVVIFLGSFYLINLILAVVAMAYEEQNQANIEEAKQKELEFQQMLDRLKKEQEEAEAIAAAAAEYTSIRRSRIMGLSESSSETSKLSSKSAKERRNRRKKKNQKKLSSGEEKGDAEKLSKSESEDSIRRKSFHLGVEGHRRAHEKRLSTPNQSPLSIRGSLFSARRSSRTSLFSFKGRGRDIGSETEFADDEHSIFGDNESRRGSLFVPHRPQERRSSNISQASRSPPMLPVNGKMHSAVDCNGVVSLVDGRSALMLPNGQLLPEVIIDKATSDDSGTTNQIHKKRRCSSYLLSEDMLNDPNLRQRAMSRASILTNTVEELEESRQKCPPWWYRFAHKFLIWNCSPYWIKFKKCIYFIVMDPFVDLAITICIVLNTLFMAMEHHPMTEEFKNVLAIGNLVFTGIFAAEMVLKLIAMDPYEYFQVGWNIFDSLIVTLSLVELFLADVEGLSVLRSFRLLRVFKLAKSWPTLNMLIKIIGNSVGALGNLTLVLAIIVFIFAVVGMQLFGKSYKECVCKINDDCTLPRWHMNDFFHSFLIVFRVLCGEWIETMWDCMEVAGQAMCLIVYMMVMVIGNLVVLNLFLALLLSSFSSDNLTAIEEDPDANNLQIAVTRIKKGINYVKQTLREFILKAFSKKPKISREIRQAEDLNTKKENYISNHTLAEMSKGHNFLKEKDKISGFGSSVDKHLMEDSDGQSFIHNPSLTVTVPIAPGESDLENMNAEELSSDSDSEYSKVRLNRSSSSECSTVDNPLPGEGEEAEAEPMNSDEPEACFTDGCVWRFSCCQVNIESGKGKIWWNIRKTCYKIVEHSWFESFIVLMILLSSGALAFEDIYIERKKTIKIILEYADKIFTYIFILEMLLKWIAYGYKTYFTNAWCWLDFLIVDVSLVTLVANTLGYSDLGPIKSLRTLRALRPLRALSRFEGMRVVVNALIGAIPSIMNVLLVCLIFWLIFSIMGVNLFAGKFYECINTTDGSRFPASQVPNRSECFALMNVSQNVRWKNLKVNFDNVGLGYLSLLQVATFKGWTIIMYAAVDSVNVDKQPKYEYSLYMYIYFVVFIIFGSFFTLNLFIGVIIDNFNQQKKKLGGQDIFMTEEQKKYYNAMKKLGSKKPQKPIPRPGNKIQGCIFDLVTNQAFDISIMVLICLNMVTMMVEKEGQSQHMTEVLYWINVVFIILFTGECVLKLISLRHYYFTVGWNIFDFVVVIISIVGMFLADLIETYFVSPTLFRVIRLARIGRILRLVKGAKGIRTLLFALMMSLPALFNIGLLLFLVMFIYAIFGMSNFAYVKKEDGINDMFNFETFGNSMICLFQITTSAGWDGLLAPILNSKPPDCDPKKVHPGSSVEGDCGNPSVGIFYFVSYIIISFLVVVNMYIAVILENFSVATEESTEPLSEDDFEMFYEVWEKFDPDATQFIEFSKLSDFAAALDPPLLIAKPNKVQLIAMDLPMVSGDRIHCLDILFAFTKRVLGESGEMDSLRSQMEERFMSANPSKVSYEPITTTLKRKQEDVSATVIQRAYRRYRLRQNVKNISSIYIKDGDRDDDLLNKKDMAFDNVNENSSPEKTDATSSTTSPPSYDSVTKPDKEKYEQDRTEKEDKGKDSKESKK
Assay: in-vitro Nav 1.7 PX (IC50)
Format: cell-based
Can you tell me IC50 for the items I'm about to list?
Reply with the number and its unit after it.

Please give the measured IC50 for this compound: COc1cc(-c2ccc(C)c(Cl)c2)ccc1-n1c(=O)ccc2cc(S(=O)(=O)Nc3ccon3)ccc21 (atropisomer, axis not shown; (P)) [Example 587]
20 nM

Hey, quick one: what's IC50 for each of these?
1. COc1cc(-c2cccc(F)c2)c(Cl)cc1-n1c(=O)ccc2cc(S(=O)(=O)Nc3nncs3)ccc21 (atropisomer, axis not shown; (M)) [Example 354]
2. COc1cc(C#CC2(F)CCCC2)c(F)cc1-n1c(=O)ccc2cc(S(=O)(=O)Nc3ccon3)ccc21 (atropisomer, axis not shown; (P)) [Example 1153]

1. 5860 nM
2. 35 nM

====

Target: Nav 1.7 (Homo sapiens (Human))
Assay: in-vitro Nav 1.7 PX (IC50)
Assay type: cell-based
Settings: in-vitro Nav 1.7 PX data (PatchXpress)
Give measured IC50 for each item. Keep answers brief.
Please format your answer as a value with the unit trailing.

Previously resolved entries follow.
Please tell me: IC50 of COc1ccc(C)c(-c2ccc(-n3c(=O)ccc4cc(S(=O)(=O)Nc5ccon5)ccc43)c(OC)c2)c1 , system Nav 1.7 (Homo sapiens (Human))?
24 nM

Can you handle Cc1cc(-c2cc(OCC#N)c(-n3c(=O)ccc4cc(S(=O)(=O)Nc5ccon5)ccc43)cc2F)ccc1Cl next?
312 nM

Lookup COc1cc(-c2cc(F)cc(C(F)F)c2)ccc1-n1c(=O)ccc2cc(S(=O)(=O)Nc3ccon3)ccc21
75 nM

Parameter requested: IC50. Apply to each item below.
1. COc1cc(-c2ccccc2C(F)(F)F)ccc1-n1c(=O)ccc2cc(S(=O)(=O)Nc3ccon3)ccc21
2. O=c1ccc2cc(S(=O)(=O)Nc3ncns3)ccc2n1-c1ccc(-c2cc(F)cc(F)c2)cc1C1CC1 [Example 1048]
3. COc1cc(-c2cc(C)c(F)cc2F)ccc1-n1c(=O)ccc2cc(S(=O)(=O)Nc3ccon3)ccc21
4. COc1ccc(C)cc1-c1ccc(-n2c(=O)ccc3cc(S(=O)(=O)Nc4ccon4)ccc32)c(OC)c1
5. O=c1ccc2cc(S(=O)(=O)Nc3ccon3)ccc2n1-c1ccc(-c2cc(F)cc(F)c2)cc1C1CC1 (atropisomer, axis not shown; (P))
6. COc1cc(-c2cc(OC)c(-n3c(=O)ccc4cc(S(=O)(=O)Nc5ncco5)ccc43)cc2F)ccc1Cl

1. 54 nM
2. 15 nM
3. 9 nM
4. 20 nM
5. 127 nM
6. 31 nM

State the recorded IC50 for every item in the following list.
1. O=c1ccc2cc(S(=O)(=O)Nc3ccon3)ccc2n1-c1cc(F)c(-c2cc(F)cc(F)c2)cc1O
2. COc1cc(Br)ccc1-n1c(=O)ccc2cc(S(=O)(=O)Nc3cccnn3)ccc21
3. O=c1ccc2cc(S(=O)(=O)Nc3cccnn3)ccc2n1-c1ccc(-c2cc(F)cc(F)c2)cc1C1CC1
4. O=c1ccc2cc(S(=O)(=O)Nc3ncns3)ccc2n1-c1ccc(-c2cc(F)cc(F)c2)cc1C1CC1 [Example 1049]
5. O=c1ccc2cc(S(=O)(=O)Nc3nncs3)ccc2n1-c1ccc(-c2cc(F)cc(F)c2)cc1C1CC1 [Example 1046]

["1730 nM", "1430 nM", "195 nM", "912 nM", "112 nM"]

====

Target: UniProt Q15858
Test: in-vitro Nav 1.7 PX (IC50)
Assay type: cell-based
endpoint-label: pIC50
Answers are plain numbers, as −log10 of the molar value.

Consider the reported pIC50 for these compounds:
Reported pIC50 for COc1ccc(-c2cncc(C#N)c2)cc1-n1c(=O)ccc2cc(S(=O)(=O)Nc3ccon3)ccc21 : what is it?
5.68

Input COc1nc(Oc2cccc(Cl)c2C)c(Cl)cc1-n1c(=O)ccc2cc(S(=O)(=O)Nc3ccon3)ccc21
6.50

Next: COc1cc(-c2cccc(Cl)c2)cc(F)c1-n1c(=O)ccc2cc(S(=O)(=O)Nc3ccon3)ccc21 (atropisomer, axis not shown; (P)) [Example 320]
6.85

Follow-up entry: COc1nc(OCc2ccc(F)c(F)c2)c(Cl)cc1-n1c(=O)ccc2cc(S(=O)(=O)Nc3ccon3)ccc21
7.02

Continue with COc1cc(-c2cc(F)cc(Cl)c2)c(C)cc1-n1c(=O)ccc2cc(S(=O)(=O)Nc3ccon3)ccc21 (atropisomer, axis not shown; (M)) [Example 418]
6.51

How about this compound: COc1cc(-c2ccc(Cl)c(C)c2)c(C)cc1-n1c(=O)ccc2cc(S(=O)(=O)Nc3ccon3)ccc21 (atropisomer, axis not shown; (P)) [Example 421]
7.80

Lookup COc1cc(-c2cc(F)cc(Cl)c2)c(F)cc1-n1c(=O)ccc2cc(S(=O)(=O)Nc3ncccn3)ccc21 (atropisomer, axis not shown; (P))
7.74

Repeat with CCOc1cc(-c2cccc(F)c2)c(F)cc1-n1c(=O)ccc2cc(S(=O)(=O)Nc3ccon3)ccc21 (atropisomer, axis not shown; (M)) [Example 389]
6.62

Provide pIC50 for all items below, preserving their order.
1. COc1cc(OC)cc(-c2cc(OC)c(-n3c(=O)ccc4cc(S(=O)(=O)Nc5ccnc(C)n5)ccc43)cc2F)c1 (atropisomer, axis not shown; (P))
2. COc1cc(-c2cc(F)cc(F)c2)c(C)cc1-n1c(=O)cc(C)c2cc(S(=O)(=O)Nc3ccon3)ccc21 (atropisomer, axis not shown; (P))
3. COc1ccc(-c2cccc(C#N)c2)cc1-n1c(=O)ccc2cc(S(=O)(=O)Nc3ccon3)ccc21
4. COc1cc(-c2cccc(Cl)c2)cc(F)c1-n1c(=O)ccc2cc(S(=O)(=O)Nc3ccon3)ccc21 (atropisomer, axis not shown; (M)) [Example 319]

7.02
7.17
6.38
6.68

So what's the measured pIC50 for this one? COc1ccc(C#CC2CCCC2)cc1-n1c(=O)ccc2cc(S(=O)(=O)Nc3ccon3)ccc21
6.92

====

Biological target: Nav 1.7 (Homo sapiens (Human))
Assay: in-vitro Nav 1.7 PX (IC50)
Assay type: cell-based
Conditions: in-vitro Nav 1.7 PX data
Assignment: determine reported IC50 for the given molecules.
Give bare numbers, in nM.

Would you please look over these solved cases?
Name the recorded IC50 for COc1cc(F)cc(-c2ccc(-n3c(=O)ccc4cc(S(=O)(=O)Nc5ncc(F)cn5)ccc43)c(OC)c2)c1 [Example 998] .
89

Could you do the same for COc1cc(Cl)cc(-c2cc(OC)c(-n3c(=O)ccc4cc(S(=O)(=O)Nc5ncccn5)ccc43)cc2F)c1 [Example 924] , please?
14

Cool, now COc1cc(-c2cccc(OC)c2Cl)c(F)cc1-n1c(=O)ccc2cc(S(=O)(=O)Nc3ccon3)ccc21 [Example 731]
142

Next record, please: COc1cc(-c2cc(F)cc(C(F)(F)F)c2)ccc1-n1c(=O)ccc2cc(S(=O)(=O)Nc3cc(C)ncn3)ccc21 [Example 1101]
41

What do we get for COc1cc(-c2cccc(C)c2)c(F)cc1-n1c(=O)ccc2cc(S(=O)(=O)Nc3ncon3)ccc21 [Example 1114] ?
35

State the recorded IC50 for every item in the following list.
1. COc1cc(F)cc(-c2ccc(OC)c(-n3c(=O)ccc4cc(S(=O)(=O)Nc5ccon5)ccc43)c2)c1 [Example 838]
2. COc1cc(-c2cccc(C(F)(F)F)c2)ccc1-n1c(=O)ccc2cc(S(=O)(=O)Nc3cc(C)ncn3)ccc21 [Example 946]

1. 69
2. 24

====

Molecular target: Nav 1.7 (Homo sapiens (Human))
Assay: in-vitro Nav 1.7 PX (IC50)
Type: cell-based
Conditions: in-vitro Nav 1.7 PX data
Task for the reader: assign each of the following compounds its reported IC50.
Answers are plain numbers, in nM.

Some compounds with recorded IC50:
Can you share its IC50? I mean this compound: COc1cc(-c2cc(F)cc(C#N)c2)ccc1-n1c(=O)ccc2cc(S(=O)(=O)Nc3ccon3)ccc21
105

Check COc1cc(-c2cncc(C(F)(F)F)c2)c(F)cc1-n1c(=O)ccc2cc(S(=O)(=O)Nc3ccon3)ccc21 too.
32

Also check COc1cc(CC2CCOCC2)c(F)cc1-n1c(=O)ccc2cc(S(=O)(=O)Nc3ccon3)ccc21
694

Consider now this further compound.
Report IC50 for COc1cc(-c2ccc(Cl)c(C)c2)c(F)cc1-n1c(=O)ccc2cc(S(=O)(=O)Nc3nncs3)ccc21 please.
3

====

Molecular target: Nav 1.7 (Homo sapiens (Human))
Assay: in-vitro Nav 1.7 PX (IC50)
Assay type: cell-based
Please respond with reported IC50 for every item in the list.

// worked examples, IC50 included
Form entry - test system: Nav 1.7 (Homo sapiens (Human)); read-out: IC50; compound: COc1cc(-c2cc(C)cc(Cl)c2)ccc1-n1c(=O)ccc2cc(S(=O)(=O)Nc3ccon3)ccc21 (atropisomer, axis not shown; (P)) [Example 585]
8 nM

Can you check COc1cc(-c2cc(F)cc(Cl)c2)c(C)cc1-n1c(=O)ccc2cc(S(=O)(=O)Nc3ccon3)ccc21 (atropisomer, axis not shown; (P)) [Example 417] next?
9 nM

Below: the item to evaluate.
Param readout = IC50; param system = Nav 1.7 (Homo sapiens (Human)); param query = COc1nc(C#CC2CCCC2)c(Cl)cc1-n1c(=O)ccc2cc(S(=O)(=O)Nc3cccnn3)ccc21 (atropisomer, axis not shown; (P)) [Example 1240] ; response: value
124 nM

Source of measurements: patent US9212182B2
